Value source: patent US8686048B2

Assay: Single dose oral hepatotoxicity assay
Format: in vivo, BALB/cJ mice
Conditions: serum, 24 hr after 100 mg/kg po single dose, mice
experimentalReadout: AST (U/L)
Answers are plain numbers, in U/L.

Some entries whose results are on file:
molecule | AST [U/L]
CCc1c[nH]c2ccc(-c3cc(F)c(NC(=O)c4ccccc4C(=O)O)c(F)c3)cc12 [Example 75] | 210.8
CCCCOc1cccc(-c2cc(F)c(NC(=O)c3ccccc3C(=O)O)c(F)c2)c1 [Example 35] | 172
CCOc1cccc(-c2cc(F)c(NC(=O)c3ccccc3C(=O)O)c(F)c2)c1 [Example 5] | 137.8
CCCCOc1cccc(-c2cc(F)c(NC(=O)c3ccccc3C(=O)O)c(Cl)c2)c1 [Example 29] | 114.4
O=C(O)c1ccccc1C(=O)Nc1c(F)cc(-c2cccc(OC3CCCC3)c2)cc1Cl [Example 42] | 189.6
CC(C)COc1cccc(-c2cc(F)c(NC(=O)c3ccccc3C(=O)O)c(Cl)c2)c1 [Example 31] | 161.4
CCOc1cccc(-c2ccc(NC(=O)c3ccccc3C(=O)O)cc2)c1 [Example 70] | 210.4

Consider the additional molecule presented here.
Challenge: I have this molecule here, CCCOc1cccc(-c2cc(F)c(NC(=O)c3ccccc3C(=O)O)c(Cl)c2)c1 [Example 19] , and I need its recorded AST.
Response given: 126.5
